# Tested on: coxsackie virus B3 (CVB3)
# PROCEDURE TEXT: Impact of the drugs on the virus-induced cytopathy (MTT)
# Assay type: cell-based
# ASSAY CONTEXT: CVB3 100 TCID50, Vero cells, about the maximal non-cytotoxic concentration, 72 hours
Listed here are compounds together with their documented antiviral effective rate (ER %).
PROPERTY MEASURED: antiviral effective rate (ER %)

- CCOC(=O)C1=C[C@@H](OC(CC)CC)[C@H](NC(C)=O)[C@@H](N)C1 [Oseltamivir phosphate, oseltamivir phosphate]: 1.64
- NC(=O)c1ncn([C@@H]2O[C@H](CO)[C@@H](O)[C@H]2O)n1 [Ribavirin, ribavirin]: 13.44
- CC(C)Cc1ccc(C(C)C(=O)O)cc1 (stereo not shown) [Ibuprofen]: 50.89

====

# Test system: respiratory syncytial virus (RSV)
# PROCEDURE TEXT: Impact of the drugs on the virus-induced cytopathy (MTT)
# Format: cell-based
# ASSAY CONTEXT: RSV 100 TCID50, Vero cells, about the maximal non-cytotoxic concentration, 72 hours
Marks after values point to notes of the source that are not given here.
Listed here are compounds together with their documented antiviral effective rate (ER %).
PROPERTY MEASURED: antiviral effective rate (ER %)

• CCOC(=O)C1=C[C@@H](OC(CC)CC)[C@H](NC(C)=O)[C@@H](N)C1 [Oseltamivir phosphate, oseltamivir phosphate] = 37.60%
• COc1ccc([C@H]2OCC3C2CO[C@H]3c2ccc(OC)c(OC(=O)C(C)c3ccc(CC(C)C)cc3)c2)cc1OC (stereo partly shown) = 87.74**^# %
• CC(C)Cc1ccc(C(C)C(=O)O)cc1 (stereo not shown) = 80.88** %
• NC(=O)c1ncn([C@@H]2O[C@H](CO)[C@@H](O)[C@H]2O)n1 = 50.08* %
